# Subject Of Test: T1, recombinant rat MASP1 active protease (amino acids 302-704, C-terminal His Tag) (rat, UniProt Q8CHN8 302-704)
# T1 sequence: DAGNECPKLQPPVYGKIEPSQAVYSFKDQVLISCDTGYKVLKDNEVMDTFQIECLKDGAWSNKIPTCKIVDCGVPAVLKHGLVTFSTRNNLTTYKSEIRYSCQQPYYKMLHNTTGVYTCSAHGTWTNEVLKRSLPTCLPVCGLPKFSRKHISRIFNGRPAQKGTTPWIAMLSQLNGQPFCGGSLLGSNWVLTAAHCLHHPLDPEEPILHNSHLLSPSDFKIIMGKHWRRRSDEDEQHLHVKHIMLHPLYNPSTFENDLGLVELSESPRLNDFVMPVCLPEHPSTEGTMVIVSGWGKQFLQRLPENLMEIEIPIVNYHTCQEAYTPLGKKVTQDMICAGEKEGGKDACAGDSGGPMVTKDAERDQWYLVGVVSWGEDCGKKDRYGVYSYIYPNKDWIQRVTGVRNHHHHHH
# Assay Procedure: cell-based or functional assay
Bridge positions count the residues as written; N and C are the ends. Square brackets hold non-standard residues; d marks the D form. Ends that are not written are not given here. Oic = O=C(O)[C@@H]1C[C@@H]2CCCC[C@@H]2N1; PEG6 = NCCOCCOCCOCCOCCOCCOCCC(=O)O; Pen = CC(C)(S)[C@H](N)C(=O)O; Sar = CNCC(=O)O
Parameter: rat MASP1 IC50 (nM)
State the answer as a number, implicitly in nM.

Lab book: rat MASP1 IC50 of [Sar]ICSRSLP[Oic]I[Pen]IP[PEG6]-OH (disulfide 3-11; N-terminus assumed; SMILES CC[C@H](C)[C@H](NC(=O)CNC)C(=O)N[C@H]1CSSC(C)(C)[C@@H](C(=O)N[C@H](C(=O)N2CCC[C@H]2C(=O)NCCOCCOCCOCCOCCOCCOCCC(=O)O)[C@@H](C)CC)NC(=O)[C@H]([C@@H](C)CC)NC(=O)[C@@H]2C[C@@H]3CCCC[C@@H]3N2C(=O)[C@@H]2CCCN2C(=O)[C@H](CC(C)C)NC(=O)[C@H](CO)NC(=O)[C@H](CCCNC(=N)N)NC(=O)[C@H](CO)NC1=O) [Example 472: ((N-Me)G)-IC+SRSLP-(Oic)-I-(Pen)+IP-(PEG5(22 atoms))-OH] noted as 100
